Sourced from paper PMC8320619

- assay.target: multidrug resistance associated protein 4 (MRP4) (Homo sapiens)
- Sequence (O15439 whole entry): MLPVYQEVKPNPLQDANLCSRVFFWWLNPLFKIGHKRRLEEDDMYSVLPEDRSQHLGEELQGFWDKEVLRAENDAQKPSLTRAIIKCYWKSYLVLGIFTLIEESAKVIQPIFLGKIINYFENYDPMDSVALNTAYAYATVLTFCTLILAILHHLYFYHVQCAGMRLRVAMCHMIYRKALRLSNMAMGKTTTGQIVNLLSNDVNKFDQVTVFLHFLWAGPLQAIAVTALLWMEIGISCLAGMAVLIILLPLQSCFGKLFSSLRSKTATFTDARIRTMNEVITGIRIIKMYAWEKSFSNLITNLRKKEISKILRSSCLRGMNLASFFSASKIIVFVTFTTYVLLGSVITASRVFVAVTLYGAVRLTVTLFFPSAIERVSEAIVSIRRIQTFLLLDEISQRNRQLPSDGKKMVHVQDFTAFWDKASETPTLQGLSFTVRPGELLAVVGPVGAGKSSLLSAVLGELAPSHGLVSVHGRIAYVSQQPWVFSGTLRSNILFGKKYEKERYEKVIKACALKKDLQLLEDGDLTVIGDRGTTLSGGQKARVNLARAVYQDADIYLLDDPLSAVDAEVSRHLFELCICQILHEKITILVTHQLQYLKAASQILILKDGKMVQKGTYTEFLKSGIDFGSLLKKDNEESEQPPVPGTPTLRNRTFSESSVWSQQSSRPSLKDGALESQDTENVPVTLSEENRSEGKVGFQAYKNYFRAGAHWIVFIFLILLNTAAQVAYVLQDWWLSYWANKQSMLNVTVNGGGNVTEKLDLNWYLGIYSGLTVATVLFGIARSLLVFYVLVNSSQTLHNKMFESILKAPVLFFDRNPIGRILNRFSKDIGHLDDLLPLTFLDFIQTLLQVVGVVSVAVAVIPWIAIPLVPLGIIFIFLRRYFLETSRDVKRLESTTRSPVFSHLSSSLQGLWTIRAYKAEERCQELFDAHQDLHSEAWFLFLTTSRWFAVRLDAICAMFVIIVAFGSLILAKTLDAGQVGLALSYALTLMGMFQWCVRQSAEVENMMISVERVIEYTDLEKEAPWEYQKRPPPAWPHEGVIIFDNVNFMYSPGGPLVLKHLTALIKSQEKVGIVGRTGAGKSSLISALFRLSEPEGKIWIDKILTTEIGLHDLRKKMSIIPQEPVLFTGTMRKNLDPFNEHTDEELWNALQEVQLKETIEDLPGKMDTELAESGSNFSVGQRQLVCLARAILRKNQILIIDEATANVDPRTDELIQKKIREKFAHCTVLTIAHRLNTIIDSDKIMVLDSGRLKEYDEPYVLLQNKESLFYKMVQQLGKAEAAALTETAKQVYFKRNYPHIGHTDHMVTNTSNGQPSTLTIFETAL
readout: IC50
Reply with a number, then the unit it belongs to.

Give multidrug resistance associated protein 4 (MRP4) (Homo sapiens) IC50 for CC(=O)Nc1ccc(O)c(SC[C@H](N)C(=O)O)c1
125 µM
